# Target or system: human Kv7.2 (Homo sapiens (Human), UniProt O43526)
# Assay summary: SyncroPatch 384 electrophysiology, activation of Kv7.2 in CHO cells
# Assay type: cell-based
# Details: Kv7.2 activation max %, relative to 30 μM ML-213 max activation
Experimental readout: Kv7.2 max (%)

Some solved entries appear below for comparison.
INSERT INTO measurements (molecule, experimental_readout, measured_result) VALUES
  ('CC(C)C12CC(NC(=O)NCc3cccc(C(F)(F)F)c3)(C1)C2', 'Kv7.2 max', 67),
  ('CC12CC(NC(=O)NCc3cccc(OC(F)(F)F)c3)(C1)C2', 'Kv7.2 max', 86),
  ('N#CCOc1cccc(CNC(=O)NC23CC(C(F)(F)F)(C2)C3)c1', 'Kv7.2 max', 53),
  ('C[C@H](NC(=O)NC12CC(F)(C1)C2)c1cccc(F)c1', 'Kv7.2 max', 51),
  ('O=C(NCc1cccc(OC(F)(F)F)c1)NC12CC(C1)C2', 'Kv7.2 max', 75),
  ('C[C@H](NC(=O)NC12CC(F)(C1)C2)c1cccc(OC(F)(F)F)c1', 'Kv7.2 max', 40),
  ('O=C(NCc1cccc(OC(F)F)c1)NC12CC(C1)C2', 'Kv7.2 max', 78),
  ('CC(NC(=O)NC12CC(F)(C1)C2)c1cccc(OC(F)F)c1 (centres unmarked)', 'Kv7.2 max', 40),
  ('O=C(N[C@@H](CO)c1cccc(Br)c1)NC12CC(C(F)(F)F)(C1)C2', 'Kv7.2 max', 69),
  ('O=C(NCc1cccc(OC(F)F)c1)NC12CC(C(F)(F)F)(C1)C2', 'Kv7.2 max', 52);

A. C[C@H](NC(=O)NC12CC(C1)C2)c1cccc(OC(F)(F)F)c1
B. O=C(NCc1cccc(OC(F)(F)F)c1)NC12CC(C(F)(F)F)(C1)C2
C. CC(C)(C)c1cccc(CNC(=O)NC23CC(C2)C3)c1
Prompt: Exam item: list the entries in increasing order of Kv7.2 max. Please respond with the labels ordered as the question requires.
Response: A, B, C

1. C[C@H](NC(=O)NC12CC(F)(C1)C2)c1cccc(Cl)c1
2. CC12CC(NC(=O)NCc3cccc(C(F)(F)F)c3)(C1)C2
Prompt: Between the entries labeled 1 and 2 , whose measured Kv7.2 max is lower? Select an item and report its label.
Response: 1
(1: 47%, 2: 77%)

a. O=C(NCc1cccc(Br)c1)NC12CC(C1)C2
b. C[C@H](NC(=O)NC12CC(F)(C1)C2)c1cccc(Br)c1
Prompt: Compare the recorded Kv7.2 max of a and b ; state which is larger. Select an item and report its label.
Response: a

1. C[C@H](NC(=O)NC12CC(F)(C1)C2)c1cccc(C(F)(F)F)c1
2. O=C(NCc1cccc(C(F)(F)F)c1)NC12CC(C(F)F)(C1)C2
Prompt: Compare the recorded Kv7.2 max of 1 and 2 ; state which is larger. Select an item and report its label.
Response: 2
(2: 74%, 1: 51%)

* * *

# Target or system: human Kv7.2 (Homo sapiens (Human), UniProt O43526)
# Assay summary: SyncroPatch 384 electrophysiology, activation of Kv7.2 in CHO cells
# Assay type: cell-based
# Details: Kv7.2 activation max %, relative to 30 μM ML-213 max activation
Experimental readout: Kv7.2 max (%)

INSERT INTO results (molecule, measured_result) VALUES
  ('O=C(NCc1ccc(F)c(OC(F)F)c1)NC12CC(C(F)(F)F)(C1)C2', 44);

a. COC12CC(NC(=O)NCc3cccc(C(F)(F)F)c3)(C1)C2
b. N#Cc1cccc(CNC(=O)NC23CC(C(F)(F)F)(C2)C3)c1F
Prompt: Compare the recorded Kv7.2 max of a and b ; state which is larger. Select an item and report its label.
Response: a

a. O=C(N[C@@H](CO)c1cccc(Br)c1)NC12CC(F)(C1)C2
b. CC(C)C12CC(NC(=O)N[C@@H](C)c3cccc(OC(F)(F)F)c3)(C1)C2
Prompt: Between the entries labeled a and b , whose measured Kv7.2 max is lower? Select an item and report its label.
Response: b

I. C[C@H](NC(=O)NC12CC(C)(C1)C2)c1cccc(OC(F)(F)F)c1
II. O=C(N[C@H](CO)c1cccc(Br)c1)NC12CC(C(F)(F)F)(C1)C2
Prompt: Between the entries labeled I and II , whose measured Kv7.2 max is lower? Select an item and report its label.
Response: II

a. O=C(NCc1cccc(C(F)(F)F)c1)NC12CC(F)(C1)C2
b. CC(NC(=O)NC12CC(C1)C2)c1cccc(OC(F)(F)F)c1 (centres unmarked)
Prompt: Compare the recorded Kv7.2 max of a and b ; state which is larger. Select an item and report its label.
Response: a

* * *

# Target or system: human Kv7.2 (Homo sapiens (Human))
# Assay summary: SyncroPatch 384 electrophysiology, activation of Kv7.2 in CHO cells
# Format: cell-based
# Details: Kv7.2 activation max %, relative to 30 μM ML-213 max activation
Experimental readout: Kv7.2 max (%)

Some solved entries appear below for comparison.
INSERT INTO results (compound, measured_result) VALUES
  ('[2H]C([2H])(NC(=O)NC12CC(C(F)(F)F)(C1)C2)c1cccc(OC(F)(F)F)c1 [Example 35]', 63),
  ('O=C(NCc1cccc(S(F)(F)(F)(F)F)c1)NC12CC(C1)C2 [Example 39]', 75),
  ('O=C(NCc1cccc(C2COC2)c1)NC12CC(C(F)(F)F)(C1)C2 [Example 30]', 65),
  ('C[C@H](NC(=O)NC12CC(C1)C2)c1cccc(C(F)(F)F)c1 [Example 51]', 52),
  ('O=C(N[C@@H](CO)c1cccc(OC(F)(F)F)c1)NC12CC(C(F)(F)F)(C1)C2 [Example 55]', 77);

A. O=C(NCc1cccc(Cl)c1)NC12CC(C1)C2 [Example 41]
B. O=C(NCc1cccc(SC(F)(F)F)c1)NC12CC(F)(C1)C2 [Example 50]
Prompt: Compare the recorded Kv7.2 max of A and B ; state which is larger. Select an item and report its label.
Response: B
(B: 72%, A: 49%)

I. [2H]C([2H])(NC(=O)NC12CC(C(F)(F)F)(C1)C2)c1cccc(C#N)c1 [Example 52]
II. O=C(NCc1cccc(C(F)(F)F)c1)NC12CC(C1)C2 [Example 23]
Prompt: Between the entries labeled I and II , whose measured Kv7.2 max is lower? Select an item and report its label.
Response: I

P. CC12CC(NC(=O)NCc3cccc(C#N)c3)(C1)C2 [Example 14]
Q. O=C(NCc1cccc(C(F)(F)F)c1)NC12CC(C(F)(F)F)(C1)C2 [Example 7]
Prompt: Compare the recorded Kv7.2 max of P and Q ; state which is larger. Select an item and report its label.
Response: Q

* * *

# Target or system: human Kv7.2 (Homo sapiens (Human), UniProt O43526)
# Assay summary: SyncroPatch 384 electrophysiology, activation of Kv7.2 in CHO cells
# Format: cell-based
# Details: Kv7.2 activation max %, relative to 30 μM ML-213 max activation
Experimental readout: Kv7.2 max (%)

INSERT INTO assay_data (molecular_string, endpoint_unit, measured_result) VALUES
  ('COC12CC(NC(=O)NCc3cccc(OC(F)(F)F)c3)(C1)C2', '%', 73),
  ('N#Cc1cccc(CNC(=O)NC23CC(F)(C2)C3)c1', '%', 48),
  ('O=C(NCc1cccc(C=C(F)F)c1)NC12CC(F)(C1)C2', '%', 71),
  ('O=C(NCc1cccc(Br)c1)NC12CC(C(F)(F)F)(C1)C2', '%', 55),
  ('O=C(N[C@@H](CO)c1cccc(C(F)(F)F)c1)NC12CC(C(F)(F)F)(C1)C2', '%', 78),
  ('N#Cc1cccc(CNC(=O)NC23CC(C(F)F)(C2)C3)c1', '%', 58),
  ('O=C(NCc1cccc(OC(F)(F)F)c1)NC12CC(F)(C1)C2', '%', 76),
  ('O=C(NCc1ccc2c(c1)OC(F)(F)O2)NC12CC(C(F)(F)F)(C1)C2', '%', 58),
  ('C#Cc1cccc(CNC(=O)NC23CC(C(F)(F)F)(C2)C3)c1', '%', 54);

A. O=C(NCc1cccc(OCC(F)(F)F)c1)NC12CC(C(F)(F)F)(C1)C2
B. O=C(NCc1cccc(OC(F)(F)F)c1F)NC12CC(C(F)(F)F)(C1)C2
Prompt: Compare the recorded Kv7.2 max of A and B ; state which is larger. Select an item and report its label.
Response: A
(A: 67%, B: 45%)

* * *

# Target or system: human Kv7.2 (Homo sapiens (Human), UniProt O43526)
# Assay summary: SyncroPatch 384 electrophysiology, activation of Kv7.2 in CHO cells
# Assay type: cell-based
# Details: Kv7.2 activation max %, relative to 30 μM ML-213 max activation
# Procedure: The potency of Kv7 uotentiators was determined using the SyncroPatch 384 (Nanion) high throughput electrophysiology platform. […] At the beginning of each assay, 20 μl of cell suspension was dispensed into each well of a multi-hole 384-well SyncroPatch chip by the onboard pipettor. […] Human Kv7.2, Kv7.4 or Kv7.5/7.3 channels were evaluated using a voltage protocol in which cells were voltage-clamped at a holding potential of −60 mV. […] Potassium currents were measured from the −90 mV repolarizing step. […]
Experimental readout: Kv7.2 max (%)

INSERT INTO measurements (molecular_string, target_or_system, experimental_readout, endpoint_unit, measured_result) VALUES
  ('O=C(N[C@@H](CO)c1cccc(Cl)c1)NC12CC(C(F)(F)F)(C1)C2', 'human Kv7.2 (Homo sapiens (Human), UniProt O43526)', 'Kv7.2 max', '%', 48),
  ('N#Cc1cccc(CNC(=O)NC23CC(C(F)(F)F)(C2)C3)c1', 'human Kv7.2 (Homo sapiens (Human), UniProt O43526)', 'Kv7.2 max', '%', 41),
  ('COc1cccc([C@H](C)NC(=O)NC23CC(F)(C2)C3)c1', 'human Kv7.2 (Homo sapiens (Human), UniProt O43526)', 'Kv7.2 max', '%', 57);

a. O=C(NCc1cccc(F)c1)NC12CC(F)(C1)C2
b. O=C(N[C@@H](CO)c1cccc(C(F)(F)F)c1)NC12CC(C1)C2
Prompt: Compare the recorded Kv7.2 max of a and b ; state which is larger. Select an item and report its label.
Response: b
(b: 78%, a: 49%)
